tgt: XIAP BIR3 (Homo sapiens, UniProt P98170)
Sequence (P98170 241-356 limits assumed): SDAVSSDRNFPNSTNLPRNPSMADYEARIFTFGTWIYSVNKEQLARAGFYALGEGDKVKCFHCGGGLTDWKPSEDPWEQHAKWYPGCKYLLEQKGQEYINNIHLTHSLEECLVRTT
assay-notes: Biotinylated BIR3 XIAP domain Alphascreen assay
Design: biotinylated XIAP BIR3; biotin (biotinylated)
condition-set: biotinylated XIAP BIR3, FITC-labeled IAP-binding molecule, Streptavidin Donor / Anti-FITC Acceptor Beads, incubation 2 hours; concentration reducing alphascreen signal to half of maximum
Where a SMILES comes first, the peptide text is derived from it. [ ]: non-standard residue; d: D form. Pro(cis-4-Ph) = O=C(O)[C@@H]1C[C@H](c2ccccc2)CN1; Phe(3-CN) = N#Cc1cccc(C[C@H](N)C(=O)O)c1
Some compounds, each annotated with its measured IC50.

GET /values?readout=IC50&item= CNC(=O)[C@@H]1C[C@H](c2ccccc2)CN1C(=O)[C@@H]1C[C@H](c2ccccc2)CN1C(=O)[C@H](Cc1cccc(C#N)c1)NC(=O)[C@H](C)N [Example 20] (H-A[Phe(3-CN)][Pro(cis-4-Ph)][Pro(cis-4-Ph)]-NHMe)
0.1 to 100 nM

Look up IC50: C[C@H](N)C1CCCC(C(=O)N2C[C@@H](c3ccccc3)C[C@H]2C(=O)N2CC[C@H](c3ccccc3)C2)N1 (stereo partly drawn) [Example 8]
100 to 1000 nM

# input for lookup
Entry C[C@@H](N)C(=O)N[C@@H](Cc1ccc(C(N)=O)cc1)C(=O)N1C[C@@H](c2ccccc2)C[C@H]1C(=O)N[C@@H]1CCc2ccccc21 [Example 17] : reported IC50 = ?
0.1 to 100 nM

Data provenance is patent US20110230419A1.
